Known EPAC DOP EC50 (EPAC cAMP BRET-based biosensor assay) of a selection of binders
assay.system: δ opioid receptor (UniProt P41143)
Starred links: 1 amine or outer side, 2 acyl side, 3 side chain; linkers in the order of their positions; H or OH if unused. Non-standard residues stand in square brackets, D forms with d. No end group written: not given here. Phe(2-(4-CF3-phenyl)) = O=C([C@H](Cc1ccccc1-c1ccc(C(F)(F)F)cc1)N[*:1])[*:2]; Phe(2-(2-methyl-1-propenyl)) = CC(C)=Cc1ccccc1C[C@H](N[*:1])C(=O)[*:2]; Phe(2-(3-thienyl)) = O=C([C@H](Cc1ccccc1-c1ccsc1)N[*:1])[*:2]; Phe(2-vinyl) = C=Cc1ccccc1C[C@H](N[*:1])C(=O)[*:2]; Dmt = Cc1cc(O)cc(C)c1C[C@H](N)C(=O)O
reported.metric: EPAC DOP EC50 (EPAC cAMP BRET-based biosensor assay) (nM)

binder	recorded.number
[Dmt][dR][Phe(2-(2-methyl-1-propenyl))]G-NH2 (N-terminus assumed; SMILES CC(C)=Cc1ccccc1C[C@H](NC(=O)[C@@H](CCCNC(=N)N)NC(=O)[C@@H](N)Cc1c(C)cc(O)cc1C)C(=O)NCC(N)=O) [Dmt-D-Arg-Phe(2-(2-methyl-1-propenyl)-Gly-NH2]	19.4
[Dmt][dA]FG-NH2 (N-terminus assumed; SMILES Cc1cc(O)cc(C)c1C[C@H](N)C(=O)N[C@H](C)C(=O)N[C@@H](Cc1ccccc1)C(=O)NCC(N)=O) [Dmt-D-Ala-Phe-Gly-NH2]	2.4
[Dmt][dR][Phe(2-(3-thienyl))]G-NH2 (N-terminus assumed; SMILES Cc1cc(O)cc(C)c1C[C@H](N)C(=O)N[C@H](CCCNC(=N)N)C(=O)N[C@@H](Cc1ccccc1-c1ccsc1)C(=O)NCC(N)=O) [Dmt-D-Arg-Phe(2-(3-thienyl))-Gly-NH2]	49
[Dmt][dR][Phe(2-vinyl)]G-NH2 (N-terminus assumed; SMILES C=Cc1ccccc1C[C@H](NC(=O)[C@@H](CCCNC(=N)N)NC(=O)[C@@H](N)Cc1c(C)cc(O)cc1C)C(=O)NCC(N)=O) [Dmt-D-Arg-Phe(2-vinyl)-Gly-NH2]	7
[Dmt][dR][Phe(2-(4-CF3-phenyl))]G-NH2 (N-terminus assumed; SMILES Cc1cc(O)cc(C)c1C[C@H](N)C(=O)N[C@H](CCCNC(=N)N)C(=O)N[C@@H](Cc1ccccc1-c1ccc(C(F)(F)F)cc1)C(=O)NCC(N)=O) [Dmt-D-Arg-Phe(2-(4-CF3-phenyl))-Gly-NH2]	26.8
[Dmt][dR]FG-NH2 (N-terminus assumed; SMILES Cc1cc(O)cc(C)c1C[C@H](N)C(=O)N[C@H](CCCNC(=N)N)C(=O)N[C@@H](Cc1ccccc1)C(=O)NCC(N)=O) [Dmt-D-Arg-Phe-Gly-NH2]	1.13

// provenance: paper PMC6005765
